B1: glmS ribozyme (parent)
chain: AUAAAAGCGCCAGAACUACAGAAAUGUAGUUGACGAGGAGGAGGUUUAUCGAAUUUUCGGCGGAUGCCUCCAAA

# Variants of: B1
# Test description: self-cleavage kobs at 10000 uM GlcN6P; higher = faster cleavage; RNA array
# Settings: with glucosamine-6-phosphate
This sample holds only a part of the variants without activity.
Metric name: self-cleavage kobs at 10000 uM GlcN6P (s⁻¹)
Write down the numeric answer in s⁻¹ and omit the unit.

Some variants with recorded self-cleavage kobs at 10000 uM GlcN6P:
>>> measured_number("AUAAAAGCGCCAGAACACAGGAAAUGUAGUUGACGAGGAGGAGGUUUAUCGGAUUUGCGGCGGAUGACUCCAAA")
"8.22e-05"
>>> measured_number("AUAAAAGCGCCAGAAGUACAGAAAUGUAAUUAACGAGGAGGAGGUUUAUCGAAUUUUCGGCGGAUGCCUCCAAA")
0.00144
>>> measured_number("AUAAAAGCGCCAGAACUACAGAAAUGUAGUUGACGAGGAGGAGGGUUAUCGAAUUCUCGGCGGAUGCCUCCAAA")
0.000987
>>> measured_number("AUAAAAGCGCCAGAACUACAGAAAUGUAGUUGACGAGGAGUAGGUUUAUCGAAUCUUCGGCGGAUGCCUCCAAA")
0.000359
>>> measured_number("AUAAAAGCGCCAGGUCUACAGAAAUGUAGUUGACGAAGAGGAGGUUUAUCGAAUUUUCGGCGGAUGCCUCCAAA")
0.00249
>>> measured_number("AUAAAAGCGCCGGAACUACAGAAAUGUAGUUGACGAGGAGGAGGUUUAUCGAAUUUUCGGCGGAUGCAUCCAAA")
"1.95e-05"
>>> measured_number("AUAAAAGCGCCAGAACUACAGAAAUGUAGUAGCCGAGGAGGAGGUUUAUCGAAUUUUCGGCGGAUGCCUCCAAA")
"4.61e-05"
>>> measured_number("AUAAAAGCGCCAGAAUUACAGAAAUGUAGGUAACGAGGAGGAGGUUUAUCGAAUUUUCGGCGGAUGCUUCCAAA")
0.000157

The record that follows has no self-cleavage kobs at 10000 uM GlcN6P shown yet.
Quick note, self-cleavage kobs at 10000 uM GlcN6P for AUAAAAGCGCCACAACUACAGAAAUGUAGUUGACGAGGAGGAGGUUUAUCGAAGUUUCGGCGGAUGCCUCCAAA landed at 0.000138
